System: HT29
test_parameters: 72 h, relative to DMSO; 10 µM
measurement_label: Relative cell viability (%)

Examples with their reported Relative cell viability (%) follow.
>  <compound>
CN(C)[C@@H]1C(O)=C(C(N)=O)C(=O)[C@@]2(O)C(O)=C3C(=O)c4c(O)cccc4[C@@](C)(O)[C@H]3[C@H](O)[C@@H]12 [Oxytetracycline Dihydrate]

>  <Relative cell viability (%)>
170.4%

$$$$
>  <compound>
CS(=O)(=O)c1ccc(C2=C(c3ccccc3)C(=O)OC2)cc1

>  <Relative cell viability (%)>
116%

$$$$
>  <compound>
C[C@@H]1CC(=O)NN=C1c1ccc(NN=C(C#N)C#N)cc1

>  <Relative cell viability (%)>
103.1%

$$$$
>  <compound>
CCCN(CCc1cccs1)[C@H]1CCc2c(O)cccc2C1

>  <Relative cell viability (%)>
62.12%

$$$$
>  <compound>
CC(=O)Oc1cc2c(s1)CCN(C(C(=O)C1CC1)c1ccccc1F)C2 (stereo not drawn)

>  <Relative cell viability (%)>
68.07%

$$$$
>  <compound>
CCN1CCN(Cc2ccc(Nc3ncc(F)c(-c4cc(F)c5nc(C)n(C(C)C)c5c4)n3)nc2)CC1

>  <Relative cell viability (%)>
5.983%

$$$$

Jot down Relative cell viability (%) (HT29) of `CN1CCN(c2nc(C3=C(c4c[nH]c5ccccc45)C(=O)NC3=O)c3ccccc3n2)CC1` .
49.03%

System HT29. Read-out Relative cell viability (%). Item `CC[C@H](C)C(=O)O[C@H]1C[C@@H](C)C=C2C=C[C@H](C)[C@H](CC[C@@H]3C[C@@H](O)CC(=O)O3)[C@H]21` . Report value.
169.7%
